- Experiment summary: in vivo
- Set-up: species or system nude mice
- Test context: nude, mouse, total radioactivity, Tumor-to-tissue ratio Kidney
*1 amine or outer side, *2 acyl side, *3 side chain or, on linkers, in order; H or OH if unused. Where a SMILES comes first, the peptide text is derived from it. Side-chain parts run from the residue outwards. [ ]: non-standard residue; d: D form. The star is where a group is joined. DOTA = O=C(O)CN1CCN(CC(=O)O)CCN(CC(=O)*)CCN(CC(=O)O)CC1; NH(2-(imidazol-4-yl)ethyl) = c1ncc(CCN*)[nH]1; Suc = O=C(CCC(=O)[*:2])[*:1]
Measurement kind: tissue to tissue ratio at 4 h

The value of tissue to tissue ratio at 4 h measured for the compound NC(=O)[C@H](CCCCNC(=O)CNC(=O)CCC(=O)NCCc1cnc[nH]1)NC(=O)[C@@H](Cc1ccc(O)cc1)NC(=O)[C@H](CCCCNC(=O)CNC(=O)CCC(=O)NCCc1cnc[nH]1)NC(=O)[C@H](Cc1ccccc1)NC(=O)CN1CCN(CC(=O)O)CCN(CC(=O)O)CCN(CC(=O)O)CC1 [Ga-67-IMP 241, metal not drawn] ({DOTA}-FK([Gly-Suc-NH(2-(imidazol-4-yl)ethyl)])[dY]K([Gly-Suc-NH(2-(imidazol-4-yl)ethyl)])-NH2) turned out to be 3.1

Origin of measurements: patent US7011816B2
